Field: Ki. System: Adenosine receptor A3 (Homo sapiens). Provenance: assorted publications.
Field format: number, assumed nM, no unit text.

Request - read-out Ki | tested on Adenosine receptor A3 (Homo sapiens) | molecule CC(C)(C)c1cc(C(=O)NCCCCCCNc2ncnc3c2ncn3[C@@H]2O[C@H](CO)[C@@H](O)[C@H]2O)cc(C(C)(C)C)c1O
14

Request - read-out Ki | tested on Adenosine receptor A3 (Homo sapiens) | molecule CCOC(=O)c1nc2c(=O)[nH]c3cc(N)ccc3n2n1
354

Request - read-out Ki | tested on Adenosine receptor A3 (Homo sapiens) | molecule COc1ccccc1OCC(=O)Nc1nnc(-c2ccc(C)cc2)[nH]1
1000

Request - read-out Ki | tested on Adenosine receptor A3 (Homo sapiens) | molecule Clc1ncnc2sc(Nc3ccccc3)nc12
3670

Request - read-out Ki | tested on Adenosine receptor A3 (Homo sapiens) | molecule CCOC(=O)c1cnc(NCCOC)n2nc(-c3ccco3)nc12
105

Request - read-out Ki | tested on Adenosine receptor A3 (Homo sapiens) | molecule Cn1cc2c(nc(NCc3ccccc3)n3nc(-c4ccco4)nc23)n1
2.49

Request - read-out Ki | tested on Adenosine receptor A3 (Homo sapiens) | molecule CNc1nc(NC(=O)c2ccccc2)n2nc(-c3ccco3)nc2n1
9240

Request - read-out Ki | tested on Adenosine receptor A3 (Homo sapiens) | molecule C[C@@H](N)C(=O)Nc1nc2ccc(Cl)cc2c2nc(-c3ccco3)nn12
1140

Request - read-out Ki | tested on Adenosine receptor A3 (Homo sapiens) | molecule O=C(Nc1nc(-c2ccccc2)ns1)C1CCC(O)CC1 (stereo in doubt)
1900

Request - read-out Ki | tested on Adenosine receptor A3 (Homo sapiens) | molecule Nc1nc(-c2ccccc2)cn2c(=O)n(-c3ccccc3)nc12
11

Request - read-out Ki | tested on Adenosine receptor A3 (Homo sapiens) | molecule O=C(Cc1ccccc1)Nc1nc2ccccc2c2cn(-c3ccccc3)nc12
9.9

Request - read-out Ki | tested on Adenosine receptor A3 (Homo sapiens) | molecule O=C(O)c1cnc(NC(c2ccccc2)c2ccccc2)n2nc(-c3ccco3)nc12
2070

Request - read-out Ki | tested on Adenosine receptor A3 (Homo sapiens) | molecule Nc1ncnc2c1ncn2[C@@H]1O[C@H](C(=O)NC2CCC2)[C@@H](O)[C@H]1O
23

Request - read-out Ki | tested on Adenosine receptor A3 (Homo sapiens) | molecule C=CCN1C(=O)N2CC(C)N=C2c2[nH]c(-c3cc(OC)nn3C)nc21 (racemic)
2.36

Request - read-out Ki | tested on Adenosine receptor A3 (Homo sapiens) | molecule COc1ccccc1NC(=O)Nc1nnc(-c2ccccc2)[nH]1
300

Request - read-out Ki | tested on Adenosine receptor A3 (Homo sapiens) | molecule N#Cc1c(N)nc(SCc2cccnc2)c(C#N)c1-c1ccco1
948

Request - read-out Ki | tested on Adenosine receptor A3 (Homo sapiens) | molecule Nc1nc2ccccc2n2c(=O)n(-c3ccc(O)cc3)nc12
73.2

Request - read-out Ki | tested on Adenosine receptor A3 (Homo sapiens) | molecule O=c1[nH]c2nc[nH]c2c(=O)n1CCc1ccccc1
7510

Request - read-out Ki | tested on Adenosine receptor A3 (Homo sapiens) | molecule Cc1cn2c(=O)n(-c3ccc(O)cc3)nc2c(=O)[nH]1
229

Request - read-out Ki | tested on Adenosine receptor A3 (Homo sapiens) | molecule C[C@@H](Oc1ccc(Cl)cc1)C(=O)Nc1nc(-c2ccccc2)n[nH]1
2500

Request - read-out Ki | tested on Adenosine receptor A3 (Homo sapiens) | molecule CCN(C(C)=O)c1ccc(OC)c2nc(NC(=O)c3ccnn3C)sc12
80

Request - read-out Ki | tested on Adenosine receptor A3 (Homo sapiens) | molecule Cc1ccc(Nc2nc(N(C)C)c(C(=O)Nc3sc4c(c3C(N)=O)CCCC4)s2)cc1
7130

Request - read-out Ki | tested on Adenosine receptor A3 (Homo sapiens) | molecule CCn1c(=O)c2c(nc3ccccn32)n(Cc2ccccc2)c1=O
36

Request - read-out Ki | tested on Adenosine receptor A3 (Homo sapiens) | molecule Nc1nc(-c2ccccc2)nc(-c2ccccc2O)n1
440

Request - read-out Ki | tested on Adenosine receptor A3 (Homo sapiens) | molecule Cn1cc2c(Cl)nc(NC(=O)c3ccccc3)nc2n1
23600

Request - read-out Ki | tested on Adenosine receptor A3 (Homo sapiens) | molecule Nc1nc(NCCc2ccc(O)c(O)c2)nc2sc(-c3ccco3)nc12
546

Request - read-out Ki | tested on Adenosine receptor A3 (Homo sapiens) | molecule CCCOC(=O)c1c(-c2ccccc2)nc(CC)c(C(=O)SCCCF)c1CCC
82.8

Request - read-out Ki | tested on Adenosine receptor A3 (Homo sapiens) | molecule CCOC(=O)c1c(NC(=O)c2sc(Nc3ccccc3)nc2-c2ccc(C)cc2)sc2c1CCCC2
4090

Request - read-out Ki | tested on Adenosine receptor A3 (Homo sapiens) | molecule COc1ccn2c(c1)nc1c2c(=O)n(CC(C)(C)C)c(=O)n1Cc1ccccc1
3.5

Request - read-out Ki | tested on Adenosine receptor A3 (Homo sapiens) | molecule CNC(=O)[C@@]12C[C@@H]1[C@@H](n1cnc3c(NC)nc(N=[N+]=[N-])nc31)[C@H](O)[C@@H]2O
0.54

Request - read-out Ki | tested on Adenosine receptor A3 (Homo sapiens) | molecule Nc1nc2nn(CCc3ccccc3)cc2c2nc(-c3ccc(F)cc3)nn12
50.6

Request - read-out Ki | tested on Adenosine receptor A3 (Homo sapiens) | molecule CNC(=O)[C@@]12C[C@@H]1[C@@H](n1cnc3c(NC4CCC4)nc(-n4cc(-c5ccc(Cl)s5)nn4)nc31)[C@H](O)[C@@H]2O
7.05

Request - read-out Ki | tested on Adenosine receptor A3 (Homo sapiens) | molecule O=C(O)c1cnn(-c2nc(NC3CCCC3)c3ncn([C@@H]4O[C@H](CO)[C@@H](O)[C@H]4O)c3n2)c1
4120

Request - read-out Ki | tested on Adenosine receptor A3 (Homo sapiens) | molecule Clc1cccc(-c2nc(N3CCCCC3)c3nc[nH]c3n2)c1
39.8

Request - read-out Ki | tested on Adenosine receptor A3 (Homo sapiens) | molecule CNC(=O)[C@@]12C[C@@H]1[C@@H](n1cnc3c(NCCc4ccc(OC)c(OC)c4)nc(C#Cc4ccc(Br)s4)nc31)[C@H](O)[C@@H]2O
8.01

Request - read-out Ki | tested on Adenosine receptor A3 (Homo sapiens) | molecule CNC(=O)[C@@]12C[C@@H]1[C@@H](n1cnc3c(NC)nc(-n4cc(-c5ccco5)nn4)nc31)[C@H](O)[C@@H]2O
0.96

---

Target protein (sequence): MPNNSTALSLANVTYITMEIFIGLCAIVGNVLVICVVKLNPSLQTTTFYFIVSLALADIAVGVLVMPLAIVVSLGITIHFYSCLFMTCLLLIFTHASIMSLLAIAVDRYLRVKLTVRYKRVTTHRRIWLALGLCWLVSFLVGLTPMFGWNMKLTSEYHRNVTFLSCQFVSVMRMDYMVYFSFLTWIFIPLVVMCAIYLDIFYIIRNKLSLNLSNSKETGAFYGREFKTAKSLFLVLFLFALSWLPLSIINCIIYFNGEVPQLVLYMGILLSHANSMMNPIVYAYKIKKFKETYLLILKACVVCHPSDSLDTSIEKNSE
pKi: −log10 of the molar value.
Field: pKi. System: the protein given by its sequence. Provenance: assorted publications.
Classification field. Basis: pKi. Definitions: zone 1 = under 6, zone 2 = from 6 up to 7, zone 3 = 7 and over

// bin(item) where item = O=C([C@H]1S[C@@H](n2cnc3c(NCc4cccc(I)c4)nc(Cl)nc32)[C@H](O)[C@@H]1O)N1CCOCC1
zone 2

// bin(item) where item = CC(=O)Oc1ccc2cc(-c3ccccc3)c(=O)oc2c1OC(C)=O
zone 1

// bin(item) where item = c1ccc(CCNc2nc3ccccc3c3cn(-c4ccccc4)nc23)cc1
zone 3

// bin(item) where item = Nc1nc(-c2ccc(OCCN3CCCCC3)cc2)cn2c(=O)n(-c3ccccc3)nc12
zone 1

// bin(item) where item = COc1ccc(Nc2nc3c(Cl)ncnc3s2)cc1
zone 1

// bin(item) where item = CC(C)(C)OC(=O)NCCC(=O)Nc1nc2ccc(Cl)cc2c2nc(-c3ccco3)nn12
zone 3

// bin(item) where item = O=C(Nc1nc(-c2ccccc2)c(-c2nc3ccccc3c(=O)n2-c2ccc(Cl)cc2)s1)c1ccco1
zone 3

// bin(item) where item = C#CCn1c(=O)[nH]c2[nH]cnc2c1=O
zone 1

// bin(item) where item = COc1cccc(N2CCN(CCCCn3ncc(=O)n(C)c3=O)CC2)c1
zone 1

// bin(item) where item = COc1ccc(-c2nc(N)c3nc(-c4ccccc4)sc3n2)cc1
zone 3

// bin(item) where item = COc1ccc(C(=O)Nc2nc(-c3ccccc3)c(C(=O)c3ccc(OC)cc3)s2)cc1
zone 1

// bin(item) where item = CNC(=O)[C@@]12C[C@@H]1[C@@H](n1cnc3c(NCCc4ccc(O)c(OC)c4)nc(C#Cc4ccc(F)s4)nc31)[C@H](O)[C@@H]2O
zone 3

// bin(item) where item = CCCn1c(=O)c2[nH]c(-c3cnn(Cc4cccc(F)c4)c3)nc2n(CCC)c1=O
zone 3

// bin(item) where item = CCCOC(=O)c1c(-c2ccccc2)nc(CC)c(C(=O)SCCO)c1CCC
zone 3

// bin(item) where item = CNc1nc(Cl)nc2c1ncn2[C@@H]1O[C@H](C(=O)N2CCOCC2)[C@@H](O)[C@H]1O
zone 1

// bin(item) where item = CC(C)CCn1cc2c(nc(NC(=O)Cc3c(Cl)cccc3Cl)n3nc(-c4ccco4)nc23)n1
zone 2

// bin(item) where item = O=c1[nH]c2nc(-c3cnn(Cc4noc(-c5ccc(C(F)(F)F)cc5)n4)c3)[nH]c2c(=O)n1CC1CC1
zone 1

// bin(item) where item = Nc1ccc(-n2nc3c(=O)[nH]c4ccccc4n3c2=O)cc1
zone 1

// bin(item) where item = CCOC(=O)c1cnc(NC2CCCCCC2)n2nc(-c3ccco3)nc12
zone 2

// bin(item) where item = CCOC(=O)[C@@]12C[C@@H]1[C@@H](n1cnc3c(NCCc4ccc(OC)c(O)c4)nc(C#Cc4ccc(Cl)s4)nc31)[C@H](O)[C@@H]2O
zone 3

// bin(item) where item = CC(C)c1nc(-c2nccs2)c2sccc2n1
zone 2

// bin(item) where item = O=C(Nc1nc2ccccc2c2cn(-c3ccccc3)nc12)c1cccnc1
zone 3

// bin(item) where item = Cn1c(=O)c2c(nc3n2CCN(Cc2ccccc2)C3)n(C)c1=O
zone 1

// bin(item) where item = CNC(=O)[C@@]12C[C@@H]1[C@@H](n1cnc3c(NCCc4ccc(O)c(OC)c4)nc(C#Cc4ccc(Br)s4)nc31)[C@H](O)[C@@H]2O
zone 3

// bin(item) where item = Clc1ccc(-n2cc3c(n2)c(NC2CCCCC2)nc2ccccc23)cc1
zone 3

// bin(item) where item = O=C(Cc1cccc(Cl)c1)Nc1nc2ccc(Cl)cc2c2nc(-c3ccco3)nn12
zone 3

// bin(item) where item = CN1CCN(c2nc(-c3cc(Cl)ccc3Cl)nc3[nH]cnc23)CC1
zone 2

// bin(item) where item = O=c1n(-c2ccccc2)nc2c(NC3CCCC3)nc3ncccc3n12
zone 3

// bin(item) where item = Cc1nc2nn(-c3ccccc3)nc2c(=O)[nH]1
zone 2

// bin(item) where item = CCOC(=O)c1cnc(NC)n2nc(-c3ccco3)nc12
zone 3

// bin(item) where item = O=c1[nH]c2ccccc2c2cn(-c3ccccc3)nc12
zone 3

// bin(item) where item = Nc1nc(-c2sc(NC(=O)c3ccco3)nc2-c2ccccc2)nc2sc3c(c12)CCCC3
zone 1
